# test details: chemical genetic growth profiling, strain panel (AID 1159580);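 further: tested at 20 µM; growth read once vehicle control cultures reached saturation at 30 °C; 1 = growth at the plate median or of vehicle wells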
# condition details: S. cerevisiae deletion strains, growth OD, locus YLR039C, strain RIC1, stronger effect = lower value
Hit rate of the full screen: of about 5,500 compounds, about 2,000 (36%) were called active. Roughly 18% stayed inconclusive and do not appear here. The list shows a part of the results.
Decision: normalized growth beneath 1 gives 1; normalized growth meeting or exceeding 1 gives -1.

Worked examples follow.
compound | group label
CN(C)C=Nc1nnc(Sc2nc3cc(Cl)ccc3s2)s1 | 1
O=C1NN=C2C3CC4CC12CC1(C3)C(=O)NN=C41 | -1
COc1ccccc1Oc1ccc(C(F)(F)F)cc1NC(=O)NC(=O)c1ccccc1F | 1

Would you kindly verify if normalized growth of CN[C@@H]1C(O)[C@@H](O[C@@H]2[C@@H](O)[C@H](O[C@H]3OC(CN)=CC[C@H]3N)[C@@H](N)C[C@H]2N)OC[C@]1(C)O (stereo not given in full) is strictly less than 1?
-1

Would you kindly verify if normalized growth of CCOC(=O)C1=C(N)Oc2ccc(Br)cc2C1C(C#N)C(=O)OCC (stereo not given) is strictly less than 1?
1

Does the reported normalized growth of the following compound sit strictly below 1? CN(C)C=Nc1nnc(SCc2ccc(C(=O)Oc3ccc(F)cc3F)cc2)s1
-1

Please check: normalized growth for CC(=O)O[C@@H]1CC2C(C)(C)C(=O)C=C[C@]2(C)C2CC[C@@]3(C)[C@H](c4ccoc4)OC(=O)[C@H]4O[C@]43[C@@]21C (stereo not given in full) , strictly under 1 or not?
1

====

# test details: chemical genetic growth profiling, strain panel (AID 1159580);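 further: tested at 20 µM; growth read once vehicle control cultures reached saturation at 30 °C; 1 = growth at the plate median or of vehicle wells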
# condition details: S. cerevisiae deletion strains, growth OD, locus YJL092W, strain hpr5, stronger effect = lower value
Out of some 5,500 compounds screened, about 2,000 (36%) were called active. Another 18% or so got no clear call; they are omitted. The list shows a part of the results.
normalized growth overview
API note: the answer field is a bare number with no unit suffix.

compound | normalized growth
CC(=O)Oc1ccc2c(c1OC(C)=O)OCC1(O)Cc3c(cc(OC(C)=O)c(OC(C)=O)c3OC(C)=O)C21 (stereo not given) | 1.01

Param item = COc1cc(OC)c2c(=O)c(OC)c(-c3ccc(OC)c(OC)c3)oc2c1 ; retrieve measured normalized growth.
1.02

Dear colleague, I am looking for the recorded normalized growth of the following compound: Oc1ccc2c(c1)OCC1(O)Cc3cc(O)c(O)cc3C21 (stereo not given)
1.03

Recorded normalized growth for Oc1cc2c(cc1O)C1c3ccc(O)c(O)c3OCC1(O)C2 (stereo not given) , please?
1.02

Given the entry C[C@@H]1O[C@@H](OC[C@H]2OC(Oc3c(-c4ccc(O)c(O)c4)oc4cc(O)cc(O)c4c3=O)[C@H](O)[C@@H](O)[C@@H]2O)[C@H](O)[C@H](O)[C@H]1O (stereo not given in full) , report its measured normalized growth.
1

Can you share its normalized growth? I mean this compound: CC(=O)[C@@]1(O)CCC2C3C[C@H](C)C4=CC(=O)C=CC4(C)[C@@]3(F)[C@@H](O)C[C@@]21C (stereo not given in full)
0.983

Request the reported normalized growth associated with COc1cc(OC)c2c(=O)c(O)c(-c3ccc(OC)c(OC)c3)oc2c1
0.959

====

# test details: chemical genetic growth profiling, strain panel (AID 1159580);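 further: tested at 20 µM; growth read once vehicle control cultures reached saturation at 30 °C; 1 = growth at the plate median or of vehicle wells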
# condition details: S. cerevisiae deletion strains, growth OD, locus YJL168C, strain set2, stronger effect = lower value
Screen size: about 5,500 compounds; about 2,000 (36%) were called active. Not shown: some 18% with an inconclusive outcome. The list shows a part of the results.
property name: normalized growth
Number only, please.

# count of solved cases: 4
compound | recorded measurement
COc1cc2occc2c2oc(=O)ccc12 | 0.976
COc1ccc(Cl)cc1C(=O)NCCc1ccc(S(=O)(=O)NC(=O)NC2CCCCC2)cc1 | 0.998
CC(C)(O)[C@@H]1Cc2cc3ccc(=O)oc3cc2O1 | 1.03
COc1ccc2ccc(=O)oc2c1 | 1.02

Continue with the compound presented below.
Consider the compound shown here: CC(=O)OC1CN2CCC1CC2 (stereo not given) What is its recorded normalized growth?
0.994
